system: MDA-MB-231; experiment: NCI tumour cell line growth inhibition, 48 h
Active and inactive are the calls of the source. Rule as the data show it: active = GI50 up to about 1.1 µM and inactive = higher.
Classes used: active, inactive

1) NC(N)=NC(P(=O)(O)O)P(=O)(O)O: inactive
2) N=C(N)N/N=C/c1c(-c2ccc([N+](=O)[O-])cc2)nc2n1CCS2: inactive
3) O=c1oc2ccccc2n1CCCn1c(=O)oc2ccccc21: inactive
4) CC[C@@H]([C@H](O)c1ccccc1Cl)[N+](=O)[O-]: inactive
5) CC(=O)/C(=C\Nc1c(C)n(C)n(C)c1=O)C(=O)c1ccccc1: inactive
6) O=c1[nH]c2nccn2c(Cl)c1Br: inactive
7) COc1ccc(SC(C)(SC)c2ccccn2)c(OC)n1 (stereo not given): inactive
8) C=CCCC1(CC(Sc2ccccc2)P(=O)(c2ccccc2)c2ccccc2)OCCO1 (stereo not given): inactive
9) O=C1CC2CC(CC3(CO3)C2)C1F (stereo not given): inactive
10) COCOc1cc(OC)c(Br)cc1C/C(=N/O)C(=O)OC: inactive
11) Clc1ncc(Cl)c(Cl)n1: inactive
12) CC(C)Oc1ccc2c(c1)OCC1Cc3ccccc3OC21 (stereo not given): inactive
13) O=c1[nH]c(=O)n(C2CC(O)C(CO)O2)cc1C1=NC1 (stereo not given): inactive
14) O=C1C=C(N2CCN(CCOCCO)CC2)C(=O)c2c(O)ccc(O)c21: inactive
15) Nc1nc(=S)n(-c2ccc(Cl)cc2)c2nc3ccccc3cc12: inactive
16) Cc1cc(C)c2c(=O)n(CC(O)CN3CCN(CCOCCO)CC3)sc2n1 (stereo not given): inactive
17) Cc1cccc(/C=N/NC(=S)NCc2ccccn2)n1: inactive
18) COC(=O)C1=C(O)C(C(=O)OC)[C@]2(O)[C@H](C(=O)OC)[C@H]1C[C@@H](c1ccc([N+](=O)[O-])cc1)[C@H]2C(=O)OC (stereo not given in full): inactive
19) Cn1c(=O)c2c(nc(NCCCCl)n2CC(=O)O)n(C)c1=O: inactive
20) C=CCCCCCCCCCOC1C=CC(OC(C)=O)C(COC(C)=O)O1 (stereo not given): inactive
21) CCOC(=O)N(c1ccccc1)c1cc(=O)n2ccccc2n1: inactive
22) O=C(O)/C=C/C=C/c1ccc2c(c1)OCO2: inactive
23) CC(NC(=O)/C(=C/c1ccccc1)NC(=O)c1ccccc1)C(=O)O (stereo not given): inactive
24) Cc1cc(C)c2c(=N)c3ccccc3n(CCCCCCCCn3c4ccccc4c(=N)c4c(C)cc(C)nc43)c2n1: inactive
25) CC1CC(C)C(C#N)N(C)c2ccccc21 (stereo not given): inactive
26) CC(C)(C)OC(=O)NC1CC2(C=C(Br)C(=O)C(Br)=C2)OC1=O (stereo not given): inactive
27) O=C(NNC(=S)NCc1ccccc1)c1csc(NC(=S)NC2CCCCC2)n1: inactive
28) CN(C)C(=S)S [SODIUM DIMETHYLCARBAMODITHIOATE]: inactive
29) CO[C@H]1O[C@@H]2CO[C@@H](c3ccccc3)O[C@H]2[C@@H]2CC=CCC[C@]12O: inactive
30) O=C(O)/C=C/c1ccc2c(c1)CC1(Cc3ccccc3C1)C2: inactive
31) CCOC(=O)N1c2ccccc2C(C)=CC(C)C1C (stereo not given): inactive
32) CC(=O)C1=C(C)NC(=C(C#N)C#N)C(C#N)=C1: inactive
33) O=C1C(N2CCN(CCOCCO)CC2)=C(Cl)C(=O)c2ncccc21: inactive
34) CCOC(=O)C#Cc1cccc(C#CC(=O)OCC)c1: inactive
35) COc1cc2c(cc1OCCCOc1cc3c(cc1OC)C(=O)N1CCC[C@H]1CN3)N=C[C@@H]1CCCN1C2=O: active
36) CC(=O)O[C@H]1C(=O)[C@@]2(C)C(C(OC(=O)c3ccccc3)[C@]3(O)CC(OC(=O)C(O)C(NC(=O)c4ccccc4)c4ccc(F)cc4)C(C)=C1C3(C)C)[C@]1(OC(C)=O)CO[C@@H]1C[C@@H]2O (stereo not given in full): active
37) CCNC(=O)/C(=C/c1ccc(OC)cc1)c1cc(OC)c(OC)c(OC)c1: inactive
38) Cc1c(-c2ccccc2)oc(=O)c2ccccc12: inactive
39) O=S(=O)(c1ccccc1)n1c(C(O)c2ccncc2)cc2ccccc21 (stereo not given): inactive
40) CSc1cnn(CCC#N)c(=O)n1: inactive

---

tested on: HOP-92; experiment: NCI tumour cell line growth inhibition, 48 h
Active and inactive are the calls of the source. Cut-off read from the data, not from the text of the source: active = GI50 up to about 1.1 µM and inactive = higher.
Classes used: YES = active, NO = inactive

1) Nc1ccc(Cc2c(N)[nH]c(=O)[nH]c2=O)cc1: NO
2) N#Cc1c(N)[nH]c2ccc(Sc3ccccc3)cc12: NO
3) CC(C(N)=O)N(C)C(=O)c1cnc2ccccc2c1 (stereo not given): NO
4) C=C1C(=O)O[C@@H]2C[C@@H](C)[C@@H]3C=CC(=O)[C@@]3(C)[C@@H](OC(=O)CCCC(=O)O[C@H]3[C@@H]4C(=C)C(=O)O[C@@H]4C[C@@H](C)[C@@H]4C=CC(=O)[C@]43C)[C@H]12: YES
5) COc1ccc(C(=O)Nc2ccccc2C#N)cc1: NO
6) COc1cc2c(cc1OCCCOc1cc3c(cc1OC)C(=O)N1CCC[C@H]1CN3)N=C[C@@H]1CCCN1C2=O: YES
7) CNC(=O)OCc1c(COC(=O)NC)c(C)n(-c2ccc(Br)cc2)c1C: NO
8) Cc1cc(C)nc(NS(=O)(=O)c2ccc(Nc3c4ccccc4nc4c(C(=O)NNCCO)cccc34)cc2)n1: NO
9) CC1=CC[C@@H](C(C)(C)O)C[C@@H]1O: NO
10) COC(=O)CCC(=O)NC1=C(Nc2ccc(OC)cc2)C(=O)c2ccccc2C1=O: NO
11) O=C1C=C2CCCC2C(C(=O)O)(C(=O)O)C1 (stereo not given): NO
12) CCCCNC(=S)Nc1nc(C(=O)NNC(=S)NC2CCCCC2)cs1: NO
13) COc1ccc(/C=C2\CN(C)C/C(=C\c3ccc(OC)cc3)C2=O)cc1: NO
14) Cc1ccccc1Cn1nc2ccccc2cc1=O: NO
15) C1OC1CN1CCN(CC2CO2)CC1 (stereo not given): NO
16) CC/N=C(/C#N)NCC: NO
17) Cc1ccc(S(=O)(=O)OC2CCN(C)CC2)cc1: NO
18) Clc1ncc(Cl)c(Cl)n1: NO
19) Cc1ccc(NC(=O)CCc2cc(C(C)(C)C)nc(S)n2)cc1C: NO
20) CC(=O)O[C@H]1C(=O)[C@@]2(C)[C@H]([C@H](OC(=O)c3ccoc3)[C@]3(O)C[C@H](OC(=O)[C@H](O)[C@@H](NC(=O)c4ccccc4)c4ccccc4)C(C)=C1C3(C)C)[C@]1(OC(C)=O)CO[C@@H]1C[C@@H]2O: NO

---

test system: SN12C; experiment: NCI tumour cell line growth inhibition, 48 h
Calls of active or inactive are those of the source. Rule as the data show it: active = GI50 up to about 1.1 µM and inactive = higher.
Classes used: active, inactive

1) CC(C)CC(=O)NC(C(=O)NC(C(=O)NC(CC(C)C)C(O)CC(=O)NC(C)C(=O)NC(CC(C)C)C(O)CC(=O)O)C(C)C)C(C)C (stereo not given): inactive
2) Cc1ccc(C(=O)N/N=C(\N=N\c2ccc(C(=O)O)cc2)c2ccc(N(CCC#N)CCC#N)cc2C)cc1: inactive
3) OCCCSCCO: inactive
4) O=C(NNC(=S)NCc1ccccc1)c1csc(NC(=S)NC2CCCCC2)n1: inactive
5) COc1cccc(Cc2cc(=O)c3ccc(C)nc3[nH]2)c1: inactive
6) O=C(CP(=O)(c1ccccc1)c1ccccc1)c1cccc(C(=O)CP(=O)(c2ccccc2)c2ccccc2)c1: inactive
7) Cc1ccc2c(c1)C(=O)N1CCC[C@H]1C=N2: inactive
8) O=C(/C=C/c1ccccc1)CC(=O)CCC(=O)Nc1ccc(Cl)cc1: inactive
9) C/C(=C1/CCCC2(N=NCC2c2ccccc2)C1=O)c1ccccc1 (stereo not given): inactive
10) COc1ccc(CNc2nc3ccc(C(F)(F)F)cc3nc2-c2ccccc2)cc1OC: inactive
11) C/C(=N\NC(=S)NC1CCCC1)c1ccccn1: active
12) COc1ccc(C(=O)O/N=C2\CCCC\C2=C/c2ccccc2)cc1: inactive
13) Cn1c(=O)oc2cc(C(O)CN3CCN(Cc4ccccn4)CC3)c(Cl)cc21 (stereo not given): inactive
14) CCCCCCOc1ccc(C(=O)NO)cc1: inactive
15) CC(C)OP(=O)(OC(C)C)/C(=N/Nc1ccc([N+](=O)[O-])cc1)Nc1ccc(N/C(=N\Nc2ccc([N+](=O)[O-])cc2)P(=O)(OC(C)C)OC(C)C)cc1: inactive
16) CC(C)(C)c1ccccc1N1C(=O)c2ccc3c4c(ccc(c24)C1=O)N(c1ccccc1C(C)(C)C)C3=O: inactive
17) COC(=O)C(=O)c1c2ccccc2n2ccc3c4ccccc4[nH]c3c12: inactive
18) COC(=O)C1=C(O)C(C(=O)OC)[C@]2(O)[C@H](C(=O)OC)[C@H]1C[C@@H](c1ccc([N+](=O)[O-])cc1)[C@H]2C(=O)OC (stereo not given in full): inactive
19) O=C1C=C(N2CCN(CCOCCO)CC2)C(=O)c2c(O)ccc(O)c21: inactive
20) COC(=O)C1=C(C(=O)OC)C23CC1C1C(C(=O)OC)=C(C(=O)OC)C12C1C=CC3C2C(=O)OC(=O)C21 (stereo not given): inactive
21) COc1cc(C(C)c2cc3c(cc2OCCN)OCO3)cc(OC)c1OC (stereo not given): inactive
22) O=C1C=C(O)C(=Cc2c(O)cc(O)cc2O)C(O)=C1: inactive
23) O=C(CCC(=O)Nc1ccc(Cl)cc1)CC(=O)c1ccc2ccccc2c1: inactive
24) NCC(=O)Nc1ccccc1: inactive
25) C=C1C(=O)OC2CCN3CC=C(COC(=O)C(C)(O)C4(CO4)C1C)C23 (stereo not given): inactive
26) NC(=O)SCC(=O)Nc1ccc2ncccc2c1: inactive
27) COc1cc2oc(=O)cc(C)c2c(OC)c1O: inactive
28) CCSC1=N/C(=C\c2ccc(N(C)C)cc2)C(Cl)=N1: inactive
29) CC1=C(C(=O)NNC(=O)Cc2ccccc2)CC(C(=O)NNC(=O)Cc2ccccc2)=C(C)N1: inactive
30) CCOC(=O)CCC(NC(=O)OCc1ccccc1)C(=O)NC(CCC(=O)OCC)C(=O)NC(CCC(=O)OCC)C(=O)NNC(=O)OC(C)(C)C (stereo not given): inactive
31) O=C(O)C1CCC(=O)N1C(=O)C(Cl)c1ccccc1 (stereo not given): inactive
32) Cn1c2ccccc2c2cc(-c3ccccc3)c3c(c21)C(=O)C=CC3=O: inactive
33) CCC(C)N1CN(c2ccccc2)C2(CCN(CCCC(=O)c3ccc(F)cc3)CC2)C1=O (stereo not given): inactive
34) CCCCNC(=S)Nc1nc(C(=O)NNC(=S)NC2CCCCC2)cs1: inactive
35) C/C=C/C(C#N)(Cc1ccccc1)OP1(=O)OC(c2ccccc2)C(C)N1C (stereo not given): inactive
36) C=C(CCC(=O)N(CCc1c[nH]c2ccccc12)C(=O)c1ccccc1CSCC)C(=O)OC: inactive
37) C=CCCC1(CC(Sc2ccccc2)P(=O)(c2ccccc2)c2ccccc2)OCCO1 (stereo not given): inactive
38) CC(C)(C)N/N=C(\C(=O)Nc1ccc([N+](=O)[O-])cc1[N+](=O)[O-])c1nc2ccc([N+](=O)[O-])cc2nc1O: inactive
39) Cc1cccc(C)c1N1C(=O)C(=O)C(c2nc3ccccc3s2)/C(=N\N)C1=O (stereo not given): inactive
40) O=c1[nH]c(=O)n(C2CC(O)C(CO)O2)cc1C1=NC1 (stereo not given): inactive

Origin of values: ChEMBL document CHEMBL1201862
